# Target under test: DNA-dependent protein kinase catalytic subunit (Homo sapiens, UniProt P78527)
# Sequence (P78527 whole entry): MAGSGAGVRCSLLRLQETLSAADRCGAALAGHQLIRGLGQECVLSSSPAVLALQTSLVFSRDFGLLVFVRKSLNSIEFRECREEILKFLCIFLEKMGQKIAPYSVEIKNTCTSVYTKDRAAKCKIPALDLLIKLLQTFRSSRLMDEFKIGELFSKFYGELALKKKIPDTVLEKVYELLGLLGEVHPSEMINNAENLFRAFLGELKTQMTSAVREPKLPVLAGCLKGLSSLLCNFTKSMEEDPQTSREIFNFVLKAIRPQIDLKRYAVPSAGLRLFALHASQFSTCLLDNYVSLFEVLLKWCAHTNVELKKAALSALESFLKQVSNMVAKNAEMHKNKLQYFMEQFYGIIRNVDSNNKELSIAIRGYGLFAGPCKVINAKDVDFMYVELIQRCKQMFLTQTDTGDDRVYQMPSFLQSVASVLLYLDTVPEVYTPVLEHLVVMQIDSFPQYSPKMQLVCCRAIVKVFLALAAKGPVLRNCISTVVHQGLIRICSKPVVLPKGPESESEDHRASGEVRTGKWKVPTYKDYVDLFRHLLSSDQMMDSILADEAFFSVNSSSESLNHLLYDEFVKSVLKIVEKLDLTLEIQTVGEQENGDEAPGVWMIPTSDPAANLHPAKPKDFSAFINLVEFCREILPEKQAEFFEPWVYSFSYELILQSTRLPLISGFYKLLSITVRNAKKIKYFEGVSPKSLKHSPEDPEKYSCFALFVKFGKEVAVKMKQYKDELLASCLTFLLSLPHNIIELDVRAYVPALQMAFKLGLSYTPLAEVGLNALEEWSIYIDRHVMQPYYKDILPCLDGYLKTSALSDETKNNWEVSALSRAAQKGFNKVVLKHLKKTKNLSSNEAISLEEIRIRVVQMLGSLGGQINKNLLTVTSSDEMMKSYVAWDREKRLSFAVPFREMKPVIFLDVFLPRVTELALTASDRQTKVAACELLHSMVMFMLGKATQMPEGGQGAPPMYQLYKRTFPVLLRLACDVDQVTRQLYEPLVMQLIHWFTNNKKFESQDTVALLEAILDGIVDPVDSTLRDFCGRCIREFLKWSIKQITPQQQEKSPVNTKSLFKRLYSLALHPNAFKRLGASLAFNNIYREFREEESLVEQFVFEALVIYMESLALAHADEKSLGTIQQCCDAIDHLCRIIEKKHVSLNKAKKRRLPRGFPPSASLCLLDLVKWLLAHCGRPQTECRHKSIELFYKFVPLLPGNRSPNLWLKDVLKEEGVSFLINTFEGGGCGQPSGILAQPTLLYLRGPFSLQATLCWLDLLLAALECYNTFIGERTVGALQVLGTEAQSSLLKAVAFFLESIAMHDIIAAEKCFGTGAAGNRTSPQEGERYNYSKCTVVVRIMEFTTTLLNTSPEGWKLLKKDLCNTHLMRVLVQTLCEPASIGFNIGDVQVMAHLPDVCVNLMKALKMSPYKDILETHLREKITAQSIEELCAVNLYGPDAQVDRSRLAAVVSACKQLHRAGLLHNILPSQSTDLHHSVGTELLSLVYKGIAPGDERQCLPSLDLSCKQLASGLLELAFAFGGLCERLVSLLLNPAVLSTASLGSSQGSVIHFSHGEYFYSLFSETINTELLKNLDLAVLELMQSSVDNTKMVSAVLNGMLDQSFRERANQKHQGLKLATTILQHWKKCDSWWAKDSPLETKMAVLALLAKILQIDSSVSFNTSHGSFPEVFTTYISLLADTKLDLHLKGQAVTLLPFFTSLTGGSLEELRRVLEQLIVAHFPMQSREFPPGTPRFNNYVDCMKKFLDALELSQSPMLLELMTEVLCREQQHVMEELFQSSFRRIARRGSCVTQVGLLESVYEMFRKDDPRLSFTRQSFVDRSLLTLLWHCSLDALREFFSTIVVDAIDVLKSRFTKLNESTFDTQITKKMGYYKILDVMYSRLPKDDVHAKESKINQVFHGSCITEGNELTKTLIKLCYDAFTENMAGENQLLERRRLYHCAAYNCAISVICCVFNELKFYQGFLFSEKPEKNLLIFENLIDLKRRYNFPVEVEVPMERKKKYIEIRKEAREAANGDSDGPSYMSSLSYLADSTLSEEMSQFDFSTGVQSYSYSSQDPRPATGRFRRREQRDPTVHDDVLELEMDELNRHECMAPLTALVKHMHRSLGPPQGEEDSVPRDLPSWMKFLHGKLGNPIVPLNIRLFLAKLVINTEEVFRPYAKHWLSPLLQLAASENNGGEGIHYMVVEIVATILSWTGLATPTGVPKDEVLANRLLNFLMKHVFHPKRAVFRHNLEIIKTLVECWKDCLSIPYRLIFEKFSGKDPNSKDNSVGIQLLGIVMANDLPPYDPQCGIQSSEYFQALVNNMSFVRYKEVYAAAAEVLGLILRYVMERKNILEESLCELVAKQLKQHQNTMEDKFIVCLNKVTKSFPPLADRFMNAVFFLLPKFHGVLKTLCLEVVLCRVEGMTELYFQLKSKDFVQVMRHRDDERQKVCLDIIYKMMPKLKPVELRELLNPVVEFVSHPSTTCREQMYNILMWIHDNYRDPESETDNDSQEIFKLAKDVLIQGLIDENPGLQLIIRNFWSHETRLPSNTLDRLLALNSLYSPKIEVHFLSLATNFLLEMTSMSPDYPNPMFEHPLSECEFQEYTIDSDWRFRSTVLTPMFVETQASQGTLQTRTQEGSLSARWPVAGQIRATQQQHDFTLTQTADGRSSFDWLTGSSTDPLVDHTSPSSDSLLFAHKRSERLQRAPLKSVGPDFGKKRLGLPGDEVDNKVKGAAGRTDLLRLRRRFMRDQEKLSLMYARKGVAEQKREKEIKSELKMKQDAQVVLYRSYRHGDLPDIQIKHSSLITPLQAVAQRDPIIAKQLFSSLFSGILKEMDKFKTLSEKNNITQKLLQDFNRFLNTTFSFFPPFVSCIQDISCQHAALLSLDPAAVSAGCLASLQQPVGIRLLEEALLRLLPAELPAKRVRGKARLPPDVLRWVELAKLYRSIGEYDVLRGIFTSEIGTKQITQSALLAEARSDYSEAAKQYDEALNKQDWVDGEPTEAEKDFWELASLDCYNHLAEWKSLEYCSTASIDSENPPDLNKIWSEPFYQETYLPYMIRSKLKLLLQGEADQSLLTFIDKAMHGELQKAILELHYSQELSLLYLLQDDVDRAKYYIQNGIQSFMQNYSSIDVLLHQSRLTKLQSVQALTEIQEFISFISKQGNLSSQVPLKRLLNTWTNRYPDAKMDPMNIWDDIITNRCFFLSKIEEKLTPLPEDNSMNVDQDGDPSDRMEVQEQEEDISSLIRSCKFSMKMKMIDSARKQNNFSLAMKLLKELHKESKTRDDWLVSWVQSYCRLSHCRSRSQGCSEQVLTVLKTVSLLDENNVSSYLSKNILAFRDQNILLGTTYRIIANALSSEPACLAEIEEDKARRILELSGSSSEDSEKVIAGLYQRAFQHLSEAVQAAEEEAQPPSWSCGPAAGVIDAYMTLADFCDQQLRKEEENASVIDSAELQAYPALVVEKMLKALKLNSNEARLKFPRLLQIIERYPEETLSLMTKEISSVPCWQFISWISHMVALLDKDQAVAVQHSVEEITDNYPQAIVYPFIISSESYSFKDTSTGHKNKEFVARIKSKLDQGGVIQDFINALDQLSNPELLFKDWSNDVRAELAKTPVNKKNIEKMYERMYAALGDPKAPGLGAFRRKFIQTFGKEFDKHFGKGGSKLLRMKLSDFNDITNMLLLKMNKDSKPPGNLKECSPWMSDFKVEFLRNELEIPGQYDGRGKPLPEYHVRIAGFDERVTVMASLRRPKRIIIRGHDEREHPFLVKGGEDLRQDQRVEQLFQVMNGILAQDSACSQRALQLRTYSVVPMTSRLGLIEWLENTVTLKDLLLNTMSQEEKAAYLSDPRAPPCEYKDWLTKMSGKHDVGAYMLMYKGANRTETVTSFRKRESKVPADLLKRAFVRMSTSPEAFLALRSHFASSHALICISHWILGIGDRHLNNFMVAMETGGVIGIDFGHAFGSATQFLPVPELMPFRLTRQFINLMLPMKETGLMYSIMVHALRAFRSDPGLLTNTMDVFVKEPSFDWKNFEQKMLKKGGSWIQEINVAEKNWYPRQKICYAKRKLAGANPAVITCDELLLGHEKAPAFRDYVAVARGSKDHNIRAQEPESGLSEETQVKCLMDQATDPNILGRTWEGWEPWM
# Experiment notes: Inhibition of DNA-PK isolated from human HeLa nuclear extract using full length His-tagged p53 as substrate measured after 75 mins in presence of ATP by HTRF assay
Result type: Ki (nM)
# value in nM; strip the unit string

Worked cases, Ki given:
Line notation | Target under test | Readout units | Ki
O=c1cc(N2CCOCC2)cc(N2CCCCC[C@@H]2Cc2ccccc2)[nH]1 | DNA-dependent protein kinase catalytic subunit (Homo sapiens, UniProt P78527) | nM | 180
C[C@@H]1CN(c2cc(N3C[C@@H]4C[C@@H]4[C@@H]3Cc3ccccc3)[nH]c(=O)c2)CCO1 | DNA-dependent protein kinase catalytic subunit (Homo sapiens, UniProt P78527) | nM | 7
C[C@@H]1CCN(c2nc(N3CCOCC3)cc(=O)[nH]2)[C@H]1Cc1ccccc1 | DNA-dependent protein kinase catalytic subunit (Homo sapiens, UniProt P78527) | nM | 110

# context switch: different compound, same Ki
What Ki appears in the records for this compound with DNA-dependent protein kinase catalytic subunit (Homo sapiens, UniProt P78527)? O=c1cc(N2CCOCC2)cc(N2C[C@H]3C[C@H]3[C@@H]2Cc2ccccc2)[nH]1
160
